Tested on: RPMI-8226 leukemia
Assay notes: NCI tumour cell line growth inhibition, 48 h
Test readout: TGI

What value of TGI has been recorded for this entry: `COc1cc2c3c(n(CCCNCCCNCCCN)c(=O)c2cc1OC)-c1cc2c(cc1C3=O)OCO2`
> 100 µM

Suppose we examine the compound `O=C(Nc1ccccc1)OCCN=C1c2ccccc2CCc2ccccc21` ; what TGI value has been reported?
36.1 µM

###

Tested on: SR leukemia
Assay notes: NCI tumour cell line growth inhibition, 48 h
The molecules listed here are annotated with their TGI.

Molecule: COc1ccc(/C=C\c2cc(OC)c(OC)c(OC)c2)cc1
TGI: 78.7 µM
--
Molecule: Nc1ccccc1C(=O)N=Nc1c(O)[nH]c2ccccc12
TGI: > 100 µM
--
Molecule: COC(=O)c1ccc2c(c1)CC1(C2)Cc2ccccc2C1=O (stereo not given)
TGI: 65.7 µM
--
Molecule: CC1=NN(c2nc(N)nc(/C(C#N)=C\c3ccc(-c4ccc([N+](=O)[O-])cc4)o3)n2)C(C)(C)C1
TGI: > 100 µM
--
Molecule: C#C[C@]1(O)CC[C@H]2[C@@H]3CC=C4c5nc(N)sc5CC[C@]4(C)[C@H]3CC[C@@]21C
TGI: 9.18 µM

Request: TGI, test system SR leukemia, entry `CNC(=O)OCc1nc(SC)n(C)c1COC(=O)NC`
473 µM

For the record `Cn1nnc2c3c(N(CCO)CCO)ccnc3ccc21` , what value of TGI is listed for SR leukemia?
> 100 µM

Recall the recorded TGI for `COc1ccc(C2=Nn3c(nnc3-n3nc(C)cc3C)SC2)cc1` with SR leukemia and state it.
> 100 µM

Please tell me: TGI of C[C@H]1CC[P+](C)(c2ccccc2)C1 (stereo not given in full) , system SR leukemia?
> 100 µM

###

Test system: M14 melanoma
Assay notes: NCI tumour cell line growth inhibition, 48 h
# maps each entry to its TGI

Molecule: O=c1c(Sc2c(SCSc3cnc4ccccc4c3Sc3c[nH]c4ccccc4c3=O)cnc3ccccc23)c[nH]c2ccccc12
Measured: > 100 µM
//
Molecule: CC1(C)OC[C@@H]([C@@]2(COC(c3ccccc3)(c3ccccc3)c3ccccc3)CC=CC(=O)O2)O1
Measured: > 100 µM
//
Molecule: CCOP(=O)(O)C(Nc1ccc(N=Nc2ccccc2)cc1)c1cccc(C(Nc2ccc(N=Nc3ccccc3)cc2)P(=O)(O)OCC)c1 (centres undefined)
Measured: > 100 µM
//
Molecule: C1=CC2CCC1CN2CCC1CNc2ccccc21 (centres undefined)
Measured: > 100 µM
//
Molecule: COc1ccc(/C=N/NS(=O)(=O)c2ccccc2)cc1
Measured: > 100 µM
//
Molecule: Cc1cc(C)nc(NS(=O)(=O)c2ccc(Nc3c4ccccc4nc4c(C(=O)NCCN(C)C)cccc34)cc2)n1
Measured: 20.4 µM
//
Molecule: O=C(/C=C/c1ccccc1O)c1ccccc1Cl
Measured: > 100 µM
//
Molecule: O=NNc1ccc(S(=O)(=O)c2ccc3ccccc3c2)cn1
Measured: > 100 µM

Please report the recorded TGI for `COc1ccccc1-c1c(C#N)c(N)[nH]c(=S)c1C#N` .
> 100 µM

TGI lookup needed for `Cc1cc(S(N)(=O)=O)c(S/C(=N\NS(=O)(=O)c2ccccc2)c2ccc(Cl)cc2)cc1Cl` , thanks.
> 100 µM

// TGI lookup, key: `O=C(NCCN1CCCCC1)c1cccc(I)c1`
> 100 µM

Quick one: TGI for CCCCC1(C(NC(=O)c2ccccc2Cl)c2ccncc2)C(=O)N(c2ccccc2)N(c2ccccc2)C1=O (centres undefined) ?
> 100 µM

Look up TGI: `NC(=O)/C(=C/n1cnc(-c2cc(C(F)(F)F)cc(C(F)(F)F)c2)n1)c1cncnc1`
7.86 µM

Look up TGI for this molecule: `Cc1ccc(-c2cc(-c3ccccc3)c(C#N)c(=O)[nH]2)cc1`
> 100 µM

# input molecule: COc1ccc(C2C3CCc4ccccc4C3=NN2S(=O)(=O)c2cccc(C(=O)O)c2OC)cc1 (centres undefined) ; wanted: its TGI
> 100 µM

// lookup TGI for CC1=CCC(C(C)(C)NC(=O)c2ccccc2)C/C1=N/O (centres undefined)
> 100 µM

Would you mind telling me what TGI value was observed for Cc1ccc(C2CC(c3ccc(Nc4ccnc5cc(Cl)ccc45)cc3)=NN2C=O)cc1 (centres undefined) ?
> 100 µM

Would you mind telling me what TGI value was observed for CC(Oc1ccccc1Cl)C(=O)NN1C(=O)CC(=O)N(c2ccc(Cl)cc2)C1=S (centres undefined) ?
> 100 µM
